This collection of values is drawn from paper PMC11184554.

I'd be grateful if you could share measured schistosomula severity score for these entries.
# System: S. mansoni newly transformed schistosomula (NTS)
# test_protocol: Phenotypic screen with newly transformed schistosomula (NTS)
# Format: cell-based
# conditions: 10 µM compound, 48 h; scale 0 to 4

CCC(C)C(C(=O)OC(CC(C)C)C(=O)NC(CC(C)C)C(=O)NC(C)C=CC(=O)N1C(=O)C=C(OC)C1Cc1ccccc1)N(C)C (centres unmarked) = 4
CCC(C)C(C(=O)OC(CC(C)C)C(=O)NC(CC(C)C)C(=O)NC(C=CC(=O)N1C(=O)C=C(OC)C1Cc1ccccc1)Cc1ccccc1)N(C)C (centres unmarked) [compound 14] = 4
CCC(C)C(C(=O)OC(CC(C)C)C(=O)NC(CC(C)C)C(=O)NC(C=CC(=O)N1C(=O)C=C(OC)C1CC(C)C)Cc1ccccc1)N(C)C (centres unmarked) = 4
CCC(C)C(C(=O)OC(CC(C)C)C(=O)NC(CC(C)C)C(=O)NC(C=CC(=O)N1C(=O)C=C(OC)C1Cc1ccccc1)Cc1ccccc1)N(C)C (centres unmarked) [compound 15] = 4
CCC(C)C(NC(C)=O)C(=O)NC(CC(C)C)C(=O)NC(CC(C)C)C(=O)NC(C)C=CC(=O)N1C(=O)C=C(OC)C1C (centres unmarked) = 2

Give me schistosomula severity score for each of these compounds, listed below.
1. CCC(C)C(C(=O)NC(CC(C)C)C(=O)NC(CC(C)C)C(=O)NC(C)C=CC(=O)N1C(=O)C=C(OC)C1C)N(C)C (centres unmarked)
2. COC1=CC(=O)N(C(=O)/C=C/[C@H](Cc2ccccc2)NC(=O)[C@H](CC(C)C)NC(=O)[C@H](CC(C)C)OC(=O)[C@H](Cc2ccccc2)N(C)C)[C@H]1C
3. CCC(C)C(C(=O)OC(CC(C)C)C(=O)NC(CC(C)C)C(=O)NC(C)CCC(=O)N1C(=O)C=C(OC)C1C)N(C)C (centres unmarked)

Result ::
1: 4; 2: 4; 3: 2
